test: Cycling tests of redox flow battery cells in constant power cycling mode; conditions: extrapolated from 5 days; flowrate 0.5 mL/min/cm^2; negolyte 120/120/40/370 mL
Where a name gives a salt, the structure may show the parent alone.
Reported Property: Stability in cycles (−20%) (cycles)
Give bare numbers, in cycles.

O=C1c2ccc(S(=O)(=O)O)cc2C(=O)c2cc(S(=O)(=O)O)ccc21 [AQ-2,7-DS, disodium salt] : 0
O=C(O)CCCOc1ccc(O)c2c1C(=O)c1ccccc1C2=O [Compound M3CH] : 28449
O=C(O)CN(CC(=O)O)Cc1cc2c(c(O)c1O)C(=O)c1ccccc1C2=O [Complexone] : 74

With those in mind, consider the next compound.
query: Which Stability in cycles (−20%) is reported for this compound? O=C1c2ccccc2C(=O)c2c1cc(S(=O)(=O)O)c(O)c2O [ARS, sodium salt]
result: 45
